# test-name: Mouse pharmacokinetics i.v. and p.o.
# Set-up: species or system mice
# measurement-parameters: in vivo, po, 60 mg/kg

{"molecule": "CSC1O[C@H]([C@H](NC(=O)[C@H]2NC[C@@H]3C[C@H](CC(C)C)CCO[C@H]32)[C@H](C)Cl)C(O)[C@@H](O)[C@H]1O (stereo partly shown) [FSA-513018b]", "AUC, ng·h/mL": 1600}

* * *

# Tested on: E. faecalis ATCC 29212
# test-name: MIC (broth microdilution or agar dilution, CLSI)
# Type: cell-based
# measurement-parameters: Enterococcus faecalis, ATCC29212, E. faecalis ATCC 29212; read-out: MIC
Please respond with 1 when measured MIC is strictly beneath 0.2 µg/mL, and with -1 in all other cases.

{"compound": "CSC1O[C@H]([C@H](NC(=O)[C@@H]2[C@@H]3OCC[C@H](CC(C)C)C[C@H]3CN2C)[C@H](C)Cl)CC(O)[C@H]1O (stereo partly shown) [FSA-513003a]", "assigned-label": 1}
{"compound": "COCCC[C@@H]1CCO[C@@H]2[C@H](CN[C@@H]2C(=O)N[C@H]([C@H](C)Cl)[C@H]2OC(SC)[C@H](O)[C@H](O)C2O)C1 (stereo partly shown) [FSA-10-10-022]", "assigned-label": -1}
{"compound": "CS[C@H]1O[C@H]([C@H](NC(=O)[C@H]2NC[C@@H]3C[C@H](CC(C)C)CCO[C@H]32)[C@H](C)Sc2ccc(CN3CCCC3)cc2)[C@H](O)[C@H](O)[C@H]1O [FSA-09-05-078]", "assigned-label": -1}
{"compound": "CSC1O[C@H]([C@H](NC(=O)[C@H]2NC[C@@H]3C[C@H](C)CCO[C@H]32)[C@H](C)Cl)C(O)[C@@H](O)[C@H]1O (stereo partly shown) [FSA-10-10-014]", "assigned-label": -1}
{"compound": "CSC1O[C@H]([C@H](NC(=O)[C@H]2NC[C@@H]3C[C@H](CCC(F)F)CCO[C@H]32)[C@H](C)Cl)C(O)C(O)[C@H]1O (stereo partly shown) [FSA-12-03-055]", "assigned-label": -1}
{"compound": "CSC1O[C@H]([C@H](NC(=O)[C@H]2NC[C@@H]3C[C@H](CC4CC4)CCO[C@H]32)[C@H](C)Cl)C(O)[C@@H](O)[C@H]1O (stereo partly shown) [FSA-10-10-001]", "assigned-label": 1}
{"compound": "CCCC[C@@H]1CCO[C@@H]2[C@H](CN[C@@H]2C(=O)N[C@H]([C@H](C)Cl)[C@H]2OC(SC)[C@H](O)C(O)C2O)C1 (stereo partly shown) [FSA-12-03-029]", "assigned-label": -1}
{"compound": "CS[C@H]1O[C@H]([C@H](NC(=O)[C@H]2NC[C@@H]3C[C@H](CC(C)C)CCO[C@H]32)[C@@H](C)O)[C@H](O)[C@H](O)[C@H]1O [FSA-09-04-072]", "assigned-label": -1}
{"compound": "CS[C@H]1O[C@H]([C@H](NC(=O)[C@H]2NC[C@@H]3C[C@H](CC(C)C)CCO[C@H]32)[C@H](C)Sc2ccc(CN3CCOCC3)cc2)[C@H](O)[C@H](O)[C@H]1O [FSA-09-05-68]", "assigned-label": -1}
{"compound": "CS[C@H]1O[C@H]([C@H](NC(=O)[C@H]2NC[C@@H]3C[C@H](CC(C)C)CCO[C@H]32)C(C)C(F)(F)F)[C@H](O)[C@H](O)[C@H]1O (mixture of isomers) [FSA-09-04-081]", "assigned-label": 1}
